Target: 5-hydroxytryptamine receptor 1A (Rattus norvegicus)
Test: In vitro ability to inhibit [3H]-8-OH-DPAT binding to 5-hydroxytryptamine 1A receptor of rat hippocampus. and the value ranges from 16 - 27
Assay type: tissue-based
pKi: −log10 of the molar value.

[
  {
    "compound": "Cl.O=C1C2C3CCC(C4CC43)C2S(=O)(=O)N1CCCCN1CCN(c2ncccn2)CC1 (stereo unspecified)",
    "pKi": 7.68
  }
]

---

Target: 5-hydroxytryptamine receptor 1A (Rattus norvegicus, UniProt P19327)
Sequence (P19327 whole entry): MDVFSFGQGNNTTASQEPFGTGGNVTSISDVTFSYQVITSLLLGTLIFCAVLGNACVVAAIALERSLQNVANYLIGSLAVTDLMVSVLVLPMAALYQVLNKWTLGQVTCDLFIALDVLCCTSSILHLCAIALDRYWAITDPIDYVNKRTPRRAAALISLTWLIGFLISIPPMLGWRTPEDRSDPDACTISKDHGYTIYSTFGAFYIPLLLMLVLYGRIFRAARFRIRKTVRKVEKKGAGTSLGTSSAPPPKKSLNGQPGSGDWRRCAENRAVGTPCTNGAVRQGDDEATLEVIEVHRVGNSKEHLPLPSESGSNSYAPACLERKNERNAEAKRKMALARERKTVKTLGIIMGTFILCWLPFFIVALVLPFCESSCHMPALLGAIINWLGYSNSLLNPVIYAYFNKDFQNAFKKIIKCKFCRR
Experiment: The inhibition activity of 5-HT1A at 1 uM
reported.endpoint: Ki (nM)

[
  {
    "molecule": "Cl.Cl.O=C1C2C3C=CC(C4C=CC43)C2S(=O)(=O)N1CCCCN1CCN(c2ncccn2)CC1 (stereo unspecified)",
    "unit": "nM",
    "observed": 10
  }
]

Data credit: ChEMBL document CHEMBL1124456
